Reference for the values: patent US10434083B2

Test: in vivo
Design: species or system swine
Conditions: both sexes, pig, im, 1.5 mg/kg, AUClast
Method: Blood samples for firocoxib determination were collected from the sows and three piglets/litter (two male and one female piglet at each time point) at 0, 2, 4, 6, 8, 12, 24, 48, 72, 96, and 120 h post-drug injection to the sow. […] Twelve calibration spikes were prepared in blank porcine plasma in the concentration range of 1-5,000 ng/mL for the samples from the sows. The samples from the piglets were analyzed using a narrower range of calibration spikes of 1-500 ng/mL. […]
Measured Attribute: AUC(0-t) (ng·h/mL)

INSERT INTO results (compound, units_symbol, observed_value) VALUES
  ('CC1(C)OC(=O)C(OCC2CC2)=C1c1ccc(S(C)(=O)=O)cc1 [firocoxib]', 'ng·h/mL', 3900);

====

Assay: in vivo
Design: species or system swine
Conditions: both sexes, pig, 2 mg/kg, Piglet AUClast
Measured Attribute: AUC(0-t)

INSERT INTO assay_data (compound_structure_string, measured_attribute, observed_value) VALUES
  ('CC1(C)OC(=O)C(OCC2CC2)=C1c1ccc(S(C)(=O)=O)cc1', 'AUC(0-t)', '3220 ng·h/mL');

====

Experiment: in vivo
Parameters: species or system swine
Details: both sexes, pig, im, 1.5 mg/kg, MRT last
Measured Attribute: MRT last (h)

INSERT INTO assay_data (compound_structure_string, observed_value) VALUES
  ('CC1(C)OC(=O)C(OCC2CC2)=C1c1ccc(S(C)(=O)=O)cc1', 52.4);

====

Assay: in vivo
Design: species or system swine
Conditions: both sexes, pig, 1.5 mg/kg, Piglet AUClast
Measured Attribute: AUC(0-t)

INSERT INTO assay_data (compound_structure_string, observed_value) VALUES
  ('CC1(C)OC(=O)C(OCC2CC2)=C1c1ccc(S(C)(=O)=O)cc1', '3900 ng·h/mL');

====

Assay: in vivo
Parameters: species or system swine
Details: both sexes, pig, im, 0.5 mg/kg, AUC0-last
Measured Attribute: AUC(0-t) (ng·h/mL)

INSERT INTO assay_data (compound_structure_string, measured_attribute, units_symbol, observed_value) VALUES
  ('CC1(C)OC(=O)C(OCC2CC2)=C1c1ccc(S(C)(=O)=O)cc1', 'AUC(0-t)', 'ng·h/mL', 635);

====

Test: Pharmacokinetics of firocoxib in a single sow after IM injection (Example 1)
Format: in vivo, swine
Details: female, crossbred, pig, plasma, 1.5 mg/kg IM
Measured Attribute: AUC(0-t) (ng·h/mL)

INSERT INTO results (compound_structure_string, measured_attribute, units_symbol, observed_value) VALUES
  ('CC1(C)OC(=O)C(OCC2CC2)=C1c1ccc(S(C)(=O)=O)cc1', 'AUC(0-t)', 'ng·h/mL', 7460);

====

Test: in vivo
Design: species or system swine
Details: both sexes, pig, im, 1 mg/kg, AUC 0-24 h
Measured Attribute: AUC(0-t) (ng·h/mL)

INSERT INTO results (compound_structure_string, units_symbol, observed_value) VALUES
  ('CC1(C)OC(=O)C(OCC2CC2)=C1c1ccc(S(C)(=O)=O)cc1', 'ng·h/mL', 407);
